# testSystem: HLA-B*5401 (Homo sapiens, UniProt P01889, A329T/C349S/D138N/D201E/E176V/E187T/E204Q/E69G/I76V/K202T/L119W/R155S/R180L/S121T/S35A/S48A/V127L/V306I/V36M/Y140L)
# test: Purified HLA class I peptide binding assay, B*5401
# conditionInfo: binding affinity, HLA-B7 supermotif-bearing peptides
Residues, ends and D or L forms follow the SMILES beside them.
recordedMetric: IC50 (nM)

• CC[C@H](C)[C@H](NC(=O)[C@H](CO)NC(=O)[C@H](CO)NC(=O)[C@H](C)NC(=O)CNC(=O)[C@H](CCC(N)=O)NC(=O)[C@@H]1CCCN1C(=O)[C@@H](N)Cc1ccccc1)C(=O)O = 400
• CC[C@H](C)[C@H](NC(=O)[C@H](Cc1c[nH]cn1)NC(=O)[C@@H]1CCCN1C(=O)[C@@H](N)Cc1ccccc1)C(=O)N[C@@H](CO)C(=O)N[C@@H](Cc1ccc(O)cc1)C(=O)N1CCC[C@H]1C(=O)N1CCC[C@H]1C(=O)N[C@@H](CC(C)C)C(=O)O = 3.8
• CSCC[C@H](NC(=O)[C@@H](NC(=O)[C@@H](NC(=O)[C@@H]1CCCN1C(=O)[C@@H](N)Cc1ccccc1)[C@@H](C)O)[C@@H](C)O)C(=O)N[C@@H](CC(N)=O)C(=O)N[C@@H](Cc1ccc(O)cc1)C(=O)N1CCC[C@H]1C(=O)N[C@@H](CC(C)C)C(=O)O (H-FPTTMNYPL-OH; N-terminus and C-terminus assumed) = 3
• CC(C)C[C@H](NC(=O)[C@H](C)NC(=O)[C@H](CCCNC(=N)N)NC(=O)[C@@H]1CCCN1C(=O)[C@@H](N)Cc1ccccc1)C(=O)N[C@H](C(=O)N[C@@H](CCC(=O)O)C(=O)N[C@H](C(=O)N[C@@H](CO)C(=O)N[C@@H](Cc1ccc(O)cc1)C(=O)N[C@H](C(=O)O)C(C)C)[C@@H](C)O)C(C)C = 10
• CC[C@H](C)[C@H](NC(=O)[C@@H](NC(=O)[C@H](CC(C)C)NC(=O)[C@H](CC(C)C)NC(=O)CNC(=O)[C@@H](NC(=O)[C@H](CCCCN)NC(=O)[C@@H]1CCCN1C(=O)[C@@H](N)Cc1ccccc1)[C@@H](C)O)[C@@H](C)CC)C(=O)O = 10
• CC[C@H](C)[C@H](NC(=O)[C@@H](NC(=O)[C@H](Cc1ccc(O)cc1)NC(=O)[C@H](CC(C)C)NC(=O)[C@H](Cc1c[nH]cn1)NC(=O)[C@H](CO)NC(=O)[C@@H](NC(=O)[C@@H]1CCCN1C(=O)[C@@H](N)Cc1ccccc1)[C@@H](C)CC)[C@@H](C)CC)C(=O)O = 0.6
• CSCC[C@H](NC(=O)[C@@H](NC(=O)[C@@H](NC(=O)[C@@H]1CCCN1C(=O)[C@@H](N)Cc1ccccc1)[C@@H](C)O)[C@@H](C)O)C(=O)N[C@@H](CC(N)=O)C(=O)N[C@@H](Cc1ccc(O)cc1)C(=O)N1CCC[C@H]1C(=O)N[C@@H](CC(C)C)C(=O)N[C@@H](Cc1c[nH]c2ccccc12)C(=O)O = 42
• CC[C@H](C)[C@H](NC(=O)[C@H](CC(C)C)NC(=O)[C@H](CC(C)C)NC(=O)CNC(=O)[C@@H](NC(=O)[C@H](CCCCN)NC(=O)[C@@H]1CCCN1C(=O)[C@@H](N)Cc1ccccc1)[C@@H](C)O)C(=O)O = 37
